Each recorded value in this set is attributed to patent US8058243B2.

- System: murine neural precursor cells (neurosphere cultures)
- test: HTS of LOPAC library against secondary neurosphere cultures, MTT proliferation assay at 3 μM, day 7 (z score, P value)
- Format: cell-based, mouse
- condition: LOPAC primary screen, neurosphere MTT proliferation, 3 μM, day 7
Where a name gives a salt, the structure may show the parent alone.
Records here are stratified by Z score; strata: bottom end: < -1; midrange: ≥ -1 and < 0.2; top end: ≥ 0.2

Answered examples (3):
{"compound": "CN/C(=N\\c1ccc(C2=NNC(=O)CC2C)cc1)NC#N (stereo not drawn)", "class_label": "top end"}
{"compound": "Cl.NCCc1c[nH]c2ccccc12 [Tryptamine hydrochloride]", "class_label": "top end"}
{"compound": "CCCN1C[C@H](CSC)C[C@@H]2c3cccc4[nH]cc(c34)C[C@H]21 [Pergolide methanesulfonate]", "class_label": "bottom end"}

QUERY: Kindly state the category for this compound: CN1[C@@H]2CC[C@H]1C[C@@H](OC(c1ccccc1)c1ccccc1)C2 [Benztropine mesylate]
RESULT: bottom end

QUERY: Kindly state the category for this compound: O=c1c(O)c(-c2cc(O)c(O)c(O)c2)oc2cc(O)cc(O)c12
RESULT: midrange

###

- Test system: murine neural precursor cells (neurosphere cultures)
- test: HTS of LOPAC library against secondary neurosphere cultures, MTT proliferation assay at 3 μM, day 7 (z score, P value)
- Format: cell-based, mouse
- condition: LOPAC library screen, 3 μM, MTT, secondary neurosphere cultures, day 7
Structures can show the parent of a compound that is named as a salt.
measurement_kind: Z Score

Consider the following illustrative entries.
{"compound": "O=C(O)c1ccccc1Nc1ccccc1 [N-Phenylanthranilic acid]", "Z Score": "−1.61"}
{"compound": "COc1cc(NS(C)(=O)=O)ccc1Nc1c2ccccc2nc2ccccc12 [Amsacrine hydrochloride]", "Z Score": "−11.27"}

# input for lookup
Form field Z Score, entry Cl.Cl.OCCN1CCN(CC/C=C2/c3ccccc3Sc3ccc(C(F)(F)F)cc32)CC1 [cis-(Z)-Flupenthixol (7), cis-(Z)-Flupenthixol] : −8.822

###

- Test system: murine neural precursor cells (neurosphere cultures)
- test: HTS of LOPAC library against secondary neurosphere cultures, MTT proliferation assay at 3 μM, day 7 (z score, P value)
- Format: cell-based, mouse
- condition: 168 h, 3 µM
Binary classification by Z score, with -0.1 as an inclusive lower bound for Condition met; all other cases are Condition not met.

{"molecule": "NCCCCCCCCCCN", "class_label": "Condition met"}
{"molecule": "CN(C)C(=O)N=NC(=O)N(C)C [N,N,N′,N′-Tetramethylazodicarboxamide]", "class_label": "Condition not met"}
{"molecule": "O=C(NCCNCC(O)COc1ccc(O)cc1)N1CCOCC1 (stereo not drawn) [Xamoterol hemifumarate]", "class_label": "Condition not met"}
{"molecule": "Cc1cccc(C#Cc2ccccc2)n1.Cl", "class_label": "Condition met"}

Turning now to a further molecule:
QUERY: Decide: Z score of CC(C)C[C@H](NP(=O)(O)O[C@@H]1O[C@@H](C)[C@H](O)[C@@H](O)[C@H]1O)C(=O)N[C@@H](Cc1c[nH]c2ccccc12)C(=O)O [Phosphoramidon disodium] >= -0.1?
RESULT: Condition not met

###

- System: murine neural precursor cells (neurosphere cultures)
- test: HTS of LOPAC library against secondary neurosphere cultures, MTT proliferation assay at 3 μM, day 7 (z score, P value)
- Format: cell-based, mouse
- condition: 168 h, 3 µM
Structures can show the parent of a compound that is named as a salt.
The following compounds are listed with their measured Z Score values.
I'd appreciate a reply containing only the number, no unit.

{"compound": "Cc1cc(O)c2c(c1)C(=O)c1cc(O)cc(O)c1C2=O", "Z Score": "−0.4835"}
{"compound": "CCCn1c(=O)c2[nH]c(C3CCCC3)nc2n(CCC)c1=O", "Z Score": "−0.07021"}

Form field Z Score, entry CC(N)C(=O)OC(C)(C)Cc1ccc(Cl)cc1 (stereo not shown) [Alaproclate hydrochloride] : −0.1725

Form field Z Score, entry O=c1oc(Cl)c(Cl)c2ccccc12 : −1.12

Form field Z Score, entry CCCCCC(O)c1cccc(OCc2ccc3ccccc3n2)c1 (stereo not shown) : −1.184

Form field Z Score, entry CN1CCN(C2=Nc3cc(Cl)ccc3Nc3ccccc32)CC1 : 0.5473

Form field Z Score, entry NC(=O)C(=O)[O-].[Na+] [Sodium Oxamate] : 0.7449

Form field Z Score, entry CCCCC[C@H](CC(=O)NO)C(=O)N[C@H](C(=O)N1CCC[C@H]1CO)C(C)C : −3.501

Form field Z Score, entry NCCC(=O)NCCc1c[nH]cn1 [Carcinine dihydrochloride] : −1.023

Form field Z Score, entry CN(C)CC/C=C1/c2ccccc2Sc2ccc(Cl)cc21 [Chlorprothixene hydrochloride] : −5.008

###

The following compounds are listed with their measured Z score values.
- Tested on: murine neural precursor cells (neurosphere cultures)
- test: HTS of LOPAC library against secondary neurosphere cultures, MTT proliferation assay at 3 μM, day 7 (z score, P value)
- Type: cell-based, mouse
- condition: LOPAC primary screen, neurosphere MTT proliferation, 3 μM, day 7
Structures can show the parent of a compound that is named as a salt.
I'd appreciate a reply containing only the number, no unit.

Consider the following illustrative entries.
{"compound": "Cl.NC1CCN(c2cccc(Cl)n2)CC1 [SR 57227A]", "Z score": "−1.400"}
{"compound": "O=C(c1cc(O)c(O)c([N+](=O)[O-])c1)c1ccccc1F [Ro 41-0960]", "Z score": "−0.360"}
{"compound": "CCCn1c(C)c(C(=O)c2cccc3ccccc23)c2ccccc21 [JWH-015]", "Z score": 0.622}
{"compound": "CC(=O)O[C@H]1C[C@@H]2CC[C@@H]3[C@H](CC[C@@]4(C)[C@H]3C[C@H]([N+]3(C)CCCCC3)[C@@H]4OC(C)=O)[C@@]2(C)C[C@@H]1[N+]1(C)CCCCC1 [Pancuronium bromide]", "Z score": 0.408}
{"compound": "Cc1cc(N)c2ccccc2[n+]1CCCCCCCCCC[n+]1c(C)cc(N)c2ccccc21 [Dequalinium (29), Dequalinium, reference compound]", "Z score": "−9.540"}
{"compound": "Cc1ccc(Cl)c(Nc2ccccc2C(=O)O)c1Cl [Meclofenamic acid sodium]", "Z score": 2.233}
{"compound": "O=C(O)C1=CCNCC1 [Isoguvacine hydrochloride]", "Z score": "−2.220"}

# input for lookup
Form field Z score, entry CC(CN1c2ccccc2Sc2ccccc21)N(C)C (centres unmarked) [Promethazine hydrochloride] : 0.475

###

- Test system: murine neural precursor cells (neurosphere cultures)
- test: HTS of LOPAC library against secondary neurosphere cultures, MTT proliferation assay at 3 μM, day 7 (z score, P value)
- Format: cell-based, mouse
- condition: LOPAC library screen, 3 μM, MTT, secondary neurosphere cultures, day 7
Binary classification by Z Score, with -2 as an inclusive lower bound for Yes; all other cases are No.

Answered examples (2):
{"molecule": "CCN1CCCC1CNC(=O)c1cc(S(N)(=O)=O)ccc1OC (single isomer, unassigned; (-)) [(−)-Sulpiride]", "class_label": "No"}
{"molecule": "O=C1c2c(O)ccc(O)c2C(=O)c2c(NCCNCCO)ccc(NCCNCCO)c21", "class_label": "No"}

QUERY: Decide: Z Score of Cc1cn([C@H]2C=C[C@@H](CO)O2)c(=O)[nH]c1=O [2′,3′-didehydro-3′-deoxythymidine] >= -2?
RESULT: Yes

QUERY: Decide: Z Score of Nc1nc(N)c2nc(-c3ccccc3)c(N)nc2n1 >= -2?
RESULT: No

QUERY: Decide: Z Score of C[C@H](CS)C(=O)N1CCC[C@H]1C(=O)O >= -2?
RESULT: Yes

###

- System: murine neural precursor cells (neurosphere cultures)
- test: HTS of LOPAC library against secondary neurosphere cultures, MTT proliferation assay at 3 μM, day 7 (z score, P value)
- Type: cell-based, mouse
- condition: LOPAC primary screen, neurosphere MTT proliferation, 3 μM, day 7
Structures can show the parent of a compound that is named as a salt.
measurement_kind: Z score
I'd appreciate a reply containing only the number, no unit.

Consider the following illustrative entries.
{"molecule": "CN(C)CCCN1c2ccccc2Sc2ccc(Cl)cc21 [Chlorpromazine hydrochloride]", "measurement_kind": "Z score", "result_value": 0.751}
{"molecule": "COc1cc2c(cc1O)CC[C@@H]1[C@@H]2CC[C@]2(C)[C@@H](O)CC[C@@H]12 [2-methoxyestradiol]", "measurement_kind": "Z score", "result_value": "−0.983"}
{"molecule": "C=C(C)[C@H]1CN[C@H](C(=O)O)[C@H]1CC(=O)O [Kainic acid]", "measurement_kind": "Z score", "result_value": "−0.317"}
{"molecule": "CO/N=C(\\C(=O)N[C@@H]1C(=O)N2C(C(=O)O)=C(COC(C)=O)CS[C@H]12)c1csc(N)n1 [Cefotaxime sodium]", "measurement_kind": "Z score", "result_value": "−1.096"}
{"molecule": "CC(COc1ccc(/C=C/c2ccccc2)cc1)[N+](C)(C)C (stereo not shown)", "measurement_kind": "Z score", "result_value": "−11.127"}
{"molecule": "CNc1cc(NS(=O)(=O)c2ccc(N)cc2)nc(NC)n1.Cl.Cl [Ro 04-6790 dihydrochloride]", "measurement_kind": "Z score", "result_value": 0.343}
{"molecule": "Cc1cnc(C(=O)NCCc2ccc(S(=O)(=O)NC(=O)NC3CCCCC3)cc2)cn1 [Glipizide]", "measurement_kind": "Z score", "result_value": "−0.830"}
{"molecule": "COc1ccc2[nH]cc(CCN)c2c1.Cl [O-Methylserotonin hydrochloride]", "measurement_kind": "Z score", "result_value": "−0.172"}

Form field Z score, entry CCCN(CCC)C1Cc2cc(OC)c(OC)cc2C1.O=C(O)/C=C\C(=O)O [U-99194A meleate] : 1.255

Form field Z score, entry CC(=O)O.CNC(=N)NCCC[C@H](N)C(=O)O [NG-Monomethyl-L-arginine acetate] : −1.386

Form field Z score, entry COc1ccc(CCN(C)CCc2ccc(OC)c(OC)c2)cc1OC.Cl [YS-035 hydrochloride] : 0.043

Form field Z score, entry CCN(CC)C(C)C(=O)N1c2ccccc2Sc2ccccc21 (stereo not shown) : −1.545

Form field Z score, entry NC(=O)c1cc[n+](CC2=C(C(=O)O)N3C(=O)[C@@H](NC(=O)[C@@H](c4ccccc4)S(=O)(=O)[O-])[C@H]3SC2)cc1 [Cefsulodin sodium salt hydrate] : −2.277

Form field Z score, entry Cc1cn[nH]c1.Cl [4-Methylpyrazole hydrochloride] : 1.042

Form field Z score, entry Nc1ncnc2c1ncn2[C@@H]1O[C@H](COP(=O)(O)CP(=O)(O)OP(=O)([O-])[O-])[C@H](O)C1O.[Li+].[Li+] (stereo partly shown) : −1.290

Form field Z score, entry CC(=O)[C@]1(O)Cc2c(O)c3c(c(O)c2[C@@H](O[C@H]2C[C@H](N)[C@H](O)[C@H](C)O2)C1)C(=O)c1ccccc1C3=O [Idarubicin] : −11.274
